Hey, just so you know, these numbers are from the nanobody polyreactivity screen of Harvey et al. (2022).

assay-remarks: yeast display, Sf9 membrane polyspecificity reagent, FACS + sequencing; frameworks hold sequencing errors
result-type: polyreactivity (PSR sort gate)

QVQLVESGGGLVQAGGSLRLSCAASGNIFRYNARGWYRKAPGKERELVAAISSVGTTNSADSVKGRFTSSRDNAKNTFYLQMNSLKPEDTAVYYCNAAWSSYLSGGYESWGQGTQVTVSS = low polyreactivity
QVQLVESGGGLVQAGGSLRLSCAASGRIFRYYVMGWYRQAPGKERELVAAITSGTSTNYADSVKGRFTISRDNAKNTVYLQMNSLKPEDTAVYYCAFRSPRGGRTRFNSNYWGQGTQVTVSS = high polyreactivity
QVQLVESGGGLVQAGGSLRLSCAASGFTFYGYAMGWYRQAPGKERELVATIRRSTGSTYYADSVKGRFTISRDNAKNTVYLQMNSLKPEDTAVYYCATRVWFPITSYDYWGQGTQVTVSS = low polyreactivity
QVQLVESGGGLVQAGGSLRLSCAASGRTFDPYAMGWYRQAPGKERELVAAITSGDDTYYADSVKGRFTISRDTAKNTVYLQMNSLKPEETAVYFCAAASFTPDYYSHDYWGQGTQVTVSS = low polyreactivity

Consider the sequence QVQLVESGGGLVQAGGSLRLSCAASGSIFQYYVMGWYRQAQGKERELVAAISRGGGSTYYADSLKGRFTISRDNAKNTVYLQMNSMKPEDTAVYYCAKRTTRLAPYDYWGQGTQVTVSS and give its measured polyreactivity (PSR sort gate).
high polyreactivity

Request the reported polyreactivity (PSR sort gate) associated with QVQLVESGRGLVQAGGSLRLSCAASGYIFDRYAMGWSRQAPGKERELVAAISGRGGSTYYADSVKGRFTISRDNAKNTVYLQMNSLNPEDTAVYYCARDVYVRNGQRARYDSWGQGTQVTVSS
high polyreactivity

Consider the sequence shown here: QVQLVESGGVLLQAGGSLRLSCAASGRIFTLYDRGWYRQAPGKEREMDAAISNSAGSTYYADSVKGRFTISRDNAKNTVYLQMNSLKPEDTAGYYCARSYSYWGYRSVYYWGQGTQVTVSS What is its recorded polyreactivity (PSR sort gate)?
high polyreactivity

###

assay-remarks: yeast display, Sf9 membrane polyspecificity reagent, FACS + sequencing; frameworks hold sequencing errors
result-type: polyreactivity (PSR sort gate)

In the examples that follow, each entry is paired with its recorded polyreactivity (PSR sort gate).
QVQLVESGGGLVQAGGSLRLSCAASGRIFLYYAMGWYRQAPGKERELVAAITSSGGGTYYADSVKGRFTISRDNAKNTVYLQMNSLKPEDTAVYYCNKAGPYYGYPHYLFYYWGQGTQVTVSS = high polyreactivity
QVQLVESGGGLVQAGGSLRLSCASSGSTLGVNAMGWYRQAPGKVRELVADISVRTDSTYYADSVKGRFTISRDNAKNTVYLQMNSLKPEDTAVYYCAADVPYYYPGFYSYYDDSDYWGQGTQVTVSS = low polyreactivity
QVQLVESGGGLVQAGGSLRLSSAASGRNFGPYTMRWSRQAPGKERELVATISYSGSTTYYADSVKGRFTISRDNAKNTVYLQMNSLKPEDTAVYYCNAQYYVFITFDYWGQGTQVTVSS = high polyreactivity
QVQLVESGGGLVQAGGSLRLSCAASGSTFGRNTMGWYRQAPGKERELVAAITSGDTTTYADSVKGRFTISRDNAKNTVYLQMNSLKPEVTAVYYCAVDPVRGRDYSWMDYWGQGTQVTVSS = low polyreactivity
QVQLVESGGGLVQAGGSLRLSCAASGFTFGSYAMGWSRQAPGKERELVAVITRSGRTNYADSVKGRFTISRDNAKNTVYLQMNSLKPEDTAVYYCNADDVDDEVSPDLTEMDYWGQGTQVTVSS = low polyreactivity

# get_value(readout='polyreactivity (PSR sort gate)', item= QVQLVESGGGLVQAGGSLRLSCAASGSTFYPNPMGWYRQAPGKERELVAAISQRGGRTYYADSVKGRFTISRDNAKNTVYLQMNSLKPEDTAVYYCAATYQGYNSWYSFGYWGQGTQVTVSS )
high polyreactivity

# input sequence: QVQHVESGGGLVQAGGSLRLSCAASGSIFGANAMGWYRQAPGNERQLVAAITSGGSTTYADSVKGRFTISRDNAKNTVYLQMNSLKPDDTAVYYCAADESTPYWPVDNFDYWGQGTQVTVSS ; wanted: its polyreactivity (PSR sort gate)
low polyreactivity

Which polyreactivity (PSR sort gate) value belongs to QVELVESGGGLVQAGGSLRLRCAASGLTFYYYPMGWYRQAPGKERELFAAIASVGSTYYADSVKGRFTISRDNATNTVYLQMNSLKPDDTAVYYCAAKSFWWHEDYWGQGTQVTVSS ?
low polyreactivity

# lookup: polyreactivity (PSR sort gate) of QVKLVESGGGLVQAGGSLRISCAASGLTFPKYAMGWYRQAPGKERELVAAITQRGGSTYYADSVKVRFTISRDNAKNTVYLEMYWLKREDTAVYYCNARRRDYNNRREFDYWGQGSQVTVSS
high polyreactivity

# get_value(readout='polyreactivity (PSR sort gate)', item= QVQLVESGGGLVQAGGSLRLSCAASGFTFRQYALGWYRQAPGKERELVAAISSGGSTYYADSVKGRFTISRDNAKNTVYLQMNSLKPEDTAVYYCNAVARYYVAYDMYWGQGTQVTVSS )
high polyreactivity

Quick one: polyreactivity (PSR sort gate) for QVQLVESGGGLVQAGGSLRLSCAASGITFKRYAMGWYRQAPGKERELVAAITISAGSTYYADSVKGRFTISRDNAKNTVYLQMNSLKPEDTAVYYCAAESYGSWYYYWGQGTQVTVSS ?
high polyreactivity
